# system: Nicotinamide phosphoribosyltransferase (Homo sapiens, UniProt P43490)
# Sequence (P43490 whole entry): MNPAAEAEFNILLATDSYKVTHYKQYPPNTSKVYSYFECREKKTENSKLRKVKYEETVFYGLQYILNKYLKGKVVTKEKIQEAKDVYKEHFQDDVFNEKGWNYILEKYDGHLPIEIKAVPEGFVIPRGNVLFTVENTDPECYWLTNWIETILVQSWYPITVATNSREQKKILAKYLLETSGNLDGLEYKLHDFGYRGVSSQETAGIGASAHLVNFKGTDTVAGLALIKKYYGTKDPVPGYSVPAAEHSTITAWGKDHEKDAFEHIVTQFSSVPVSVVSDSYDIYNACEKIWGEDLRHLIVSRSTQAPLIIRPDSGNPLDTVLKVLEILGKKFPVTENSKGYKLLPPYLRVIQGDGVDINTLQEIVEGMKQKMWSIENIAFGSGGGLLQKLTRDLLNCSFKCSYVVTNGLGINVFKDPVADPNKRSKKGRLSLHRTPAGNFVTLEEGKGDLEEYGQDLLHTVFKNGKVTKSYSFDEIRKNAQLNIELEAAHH
parameter.measured: Kd (µM)
Report as a plain number; the unit µM is understood.

Note to self: Kd of O=C(NCc1ccncc1)Nc1ccc(S(=O)(=O)N2CC3CCC(C2)O3)cc1 with Nicotinamide phosphoribosyltransferase (Homo sapiens, UniProt P43490) was 6.82
